- Tested on: Candida
- method: Antifungal in-vivo activity (oral) in mouse candidosis
- Parameters: species or system Mäuse vom Typ SPF-CF1; key: +++++: = sehr gute Wirkung = 90 % Ueberlebende am 6.Tag p.i.; ++++: = gute Wirkung = 80 % Ueberlebende am 6.Tag p.i.; +++: = Wirkung = 60 % Ueberlebende am 6.Tag p.i.; ++: = schwache Wirkung = 40 % Ueberlebende am 6.Tag p.i.; +: = Spur Wirkung = unter 40% " " " "; k.W.: = keine Wirkung
- assay context: 50 - 100 mg/kg one hour before and seven hours after i.v. infection

>  <compound>
Cc1cc(Cl)ccc1OCC(O)(Cn1cncn1)C(C)(C)C (stereo not shown) [(C), reference compound]

>  <target desc>
Candida

>  <Wirkung (Ueberlebende am 6.Tag p.i.)>
k.W.

$$$$
>  <compound>
Cc1ccc(OCC(O)(Cn2cncn2)C(C)(C)C)cc1 (stereo not shown) [(A), reference compound]

>  <target desc>
Candida

>  <Wirkung (Ueberlebende am 6.Tag p.i.)>
k.W.

$$$$

====

- System: Trichophyton mentagrophytes
- method: In-vivo activity (local) in experimental guinea pig trichophytosis
- Design: species or system Meerschweinchen; key: +++++: sehr gute Wirkung = keine Infektionszeichen am 12.-15.Tag p.i.; ++++: gute Wirkung = geringe Rötung, vereinzelt Schuppen; +++: Wirkung = Rötung, Schuppung, ohne Haarausfall; ++: schwache Wirkung = Rötung, Schuppung, Haarausfall; +: Spur Wirkung = flächiger Haarausfall, entzündliche Hautreaktion
- assay context: 1x daily from day 3 p.i., 15%-ige Lösung in Dimethylsulfoxid : Glycerin = 1 : 4
assay readout: Wirkung (Infektionszeichen)

>  <compound>
COC(COc1ccc(Cl)cc1C)(Cn1cncn1)C(C)(C)C (centres unmarked)

>  <Wirkung (Infektionszeichen)>
++++

$$$$
>  <compound>
COC(COc1ccc(Cl)cc1)(Cn1cncn1)C(C)(C)C (centres unmarked)

>  <Wirkung (Infektionszeichen)>
++++

$$$$
>  <compound>
COC(CCc1ccc(F)cc1)(Cn1cncn1)C(C)(C)C (centres unmarked)

>  <Wirkung (Infektionszeichen)>
++++

$$$$
>  <compound>
COC(CCc1ccc(Cl)cc1)(Cn1cncn1)C(C)(C)C (centres unmarked)

>  <Wirkung (Infektionszeichen)>
++++

$$$$

Now examine the next entry.
Would you kindly share the measured Wirkung (Infektionszeichen) for COC(COc1ccc(Cl)cc1Cl)(Cn1cncn1)C(C)(C)C (centres unmarked) ?
++++
